- targetUnderTest: MAL^TIR (Homo sapiens, UniProt P58753)
- Construct: MAL (residues 79–221); 6xHis; made in house; host or cells: E. coli BL21 (DE3)
- Sequence (P58753 79-221): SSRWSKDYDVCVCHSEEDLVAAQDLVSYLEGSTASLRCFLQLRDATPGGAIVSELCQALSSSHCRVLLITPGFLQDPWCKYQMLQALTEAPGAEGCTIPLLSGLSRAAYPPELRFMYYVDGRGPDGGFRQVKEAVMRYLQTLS
- measurementDescription: T‐Surf phage library (P8 and P3) selection against MAL^TIR, four rounds, NGS read counts
- Format: binding
- protocolConditions: P8_MAL: rank by count after grouping

constructSequence: LCFCESLKQLLRSDGR
targetUnderTest: MAL^TIR (Homo sapiens, UniProt P58753)
Rank (after): 110
--
constructSequence: AFFWAQLKSVLGNPPV
targetUnderTest: MAL^TIR (Homo sapiens, UniProt P58753)
Rank (after): 424
--
constructSequence: RGFLSHLRHHLQAKDH
targetUnderTest: MAL^TIR (Homo sapiens, UniProt P58753)
Rank (after): 107
--
constructSequence: KLCWEKFKCFLPSLSR
targetUnderTest: MAL^TIR (Homo sapiens, UniProt P58753)
Rank (after): 404
--
constructSequence: YFLHSCCLAVRKPSI
targetUnderTest: MAL^TIR (Homo sapiens, UniProt P58753)
Rank (after): 158
--
constructSequence: WFFEPLVILIPRDTKV
targetUnderTest: MAL^TIR (Homo sapiens, UniProt P58753)
Rank (after): 411
--
constructSequence: WFMMKFRTVLYHVNYV
targetUnderTest: MAL^TIR (Homo sapiens, UniProt P58753)
Rank (after): 398
--
constructSequence: AFLYTFLNNLIHPTTF
targetUnderTest: MAL^TIR (Homo sapiens, UniProt P58753)
Rank (after): 145
--
constructSequence: WFYARLVRLILRDPKV
targetUnderTest: MAL^TIR (Homo sapiens, UniProt P58753)
Rank (after): 419

###

- targetUnderTest: MAL^TIR (Homo sapiens, UniProt P58753)
- Construct: MAL (residues 79–221); 6xHis; made in house; host or cells: E. coli BL21 (DE3)
- measurementDescription: T‐Surf phage library (P8 and P3) selection against MAL^TIR, four rounds, NGS read counts
- Assay type: binding
- protocolConditions: P8_MAL: rank by count before grouping
Items are presented alongside their recorded Rank (before).

constructSequence: SFLHFLLLSRPETAYI
Rank (before): 1438

constructSequence: AYAYSRLVLLPLLELS
Rank (before): 1943

constructSequence: TFLAICIMRWCRRAF
Rank (before): 718

constructSequence: AFLYAFLINLTHPTNI
Rank (before): 1812

constructSequence: LFFWKSLKQLLRSDSR
Rank (before): 2128

constructSequence: LFFWESLKPLPRRDGR
Rank (before): 2088

constructSequence: LVAHEISKKMKIFATI
Rank (before): 923

constructSequence: TFLGPLLNALVQAGIH
Rank (before): 2536

constructSequence: SEFIQKISLWMNAKIV
Rank (before): 2486

constructSequence: AVRYTILINLTHTTNF
Rank (before): 1955

constructSequence: TFLGHLYNMLIQAGIH
Rank (before): 2595

constructSequence: WFLFTVRSAIYAMDQVADT
Rank (before): 1324

constructSequence: LFCWESLKQLLRSDCR
Rank (before): 2151

constructSequence: KLFQQWIELHLHQLHL
Rank (before): 2724

constructSequence: WFYERQVSLILRDTNV
Rank (before): 1259

constructSequence: RNFVAYLFQALAHKSI
Rank (before): 2199

constructSequence: ALFWEQLRTVLGKLTM
Rank (before): 1924

constructSequence: LFFWESLKQLLGNPTM
Rank (before): 909

constructSequence: PLLYTFLINLTHPTNF
Rank (before): 2327

constructSequence: WFYERLVRLILRDTKA
Rank (before): 1185

constructSequence: LFFWGSLKQLLRNDGR
Rank (before): 2061

constructSequence: DSLFWDRLLYSLHVTE
Rank (before): 877

constructSequence: CFLFTVRSAIYAMNPA
Rank (before): 1109

constructSequence: WFYERLVKLVLRDTKV
Rank (before): 1244

constructSequence: WFYDRLVSLFLRDPKV
Rank (before): 1140

constructSequence: AFLFTFLINLTHPSNF
Rank (before): 1803

constructSequence: AFLWTQLKNVLGNPTF
Rank (before): 1766

constructSequence: AFLYTFLINLTRQTNF
Rank (before): 1837

constructSequence: AFLYTFMINLTHPTTF
Rank (before): 1889

constructSequence: KLCWEKFKCFLPSLSR
Rank (before): 2727

constructSequence: TFLGNLYNALVKAGIH
Rank (before): 2614

constructSequence: AFLYTFLIKLTHPPNF
Rank (before): 1862

constructSequence: WFYERLVSLLMRDTKV
Rank (before): 1193

constructSequence: AFFWEQLRTLLSKPTM
Rank (before): 1673

constructSequence: YFLHFMLFRRRGTEYI
Rank (before): 1507

constructSequence: RGFLSHLRHHLQAKDH
Rank (before): 654

constructSequence: WFYERLVGLIMRDTKV
Rank (before): 1172

constructSequence: TFLGHLYNALVQTGIP
Rank (before): 2569

constructSequence: AFFWEQLRTLLGQPTM
Rank (before): 1699

constructSequence: LFFWEKLRQLLRRAAS
Rank (before): 2124

constructSequence: RNFVAYLFQALAKPA
Rank (before): 2209

constructSequence: AFFWAQLQSMLGNPTM
Rank (before): 1605

constructSequence: AFFWAQLKSVLGNLTK
Rank (before): 1623

constructSequence: KNLFNELVSKNIRTFM
Rank (before): 732

constructSequence: AYLNTFLINLTHPTNF
Rank (before): 1951

constructSequence: AFFCEQLRTVIGKPTI
Rank (before): 1587

constructSequence: ALLNNFLIKLTHPSII
Rank (before): 1959

constructSequence: RNFVAYLLQALAHKCI
Rank (before): 2221

constructSequence: YFLNFLLFSRPETDYI
Rank (before): 1516

constructSequence: RLLKWKEALHQFHSWV
Rank (before): 655

constructSequence: AFFWPQLKSMLRNTTV
Rank (before): 1716

constructSequence: AFLYTFLINLTHLPNF
Rank (before): 1842

constructSequence: WIYERLVSRILRDTKV
Rank (before): 1430

constructSequence: ACFWEQRPTVLGKPPM
Rank (before): 1934

constructSequence: DPQDLQWFYERLVSLI
Rank (before): 1990

constructSequence: AFFWEQLRTVLGKPR
Rank (before): 835

constructSequence: VTKLKKGKSIAPKLLR
Rank (before): 1562

constructSequence: RNNFICHLYQELYRIG
Rank (before): 2264

constructSequence: RNFVAYLLQALANKSI
Rank (before): 2222

constructSequence: WFYERLVSLILRHTKL
Rank (before): 1155

constructSequence: WFYERLVCLILRDIKV
Rank (before): 1171

constructSequence: KLLWEKCTFFLPSLSR
Rank (before): 2726

constructSequence: WFYESLVSLILRDTIV
Rank (before): 1299

constructSequence: AFFWEKLRTVLGRPTM
Rank (before): 1713

constructSequence: TFPGHLYNALVQAGIL
Rank (before): 2633

constructSequence: WFYERLVSLIMRATKV
Rank (before): 1222

constructSequence: WFFEPLVILIPRDTKV
Rank (before): 1115

constructSequence: WFYERMVSLILRDTKL
Rank (before): 1262

constructSequence: AFLCPQLKSVLGNPTI
Rank (before): 1753

constructSequence: LFFWASLKNLLRSAGS
Rank (before): 2066

constructSequence: AFLCTHLKNLIHKTTI
Rank (before): 1755

constructSequence: YTALTNSGFHTFRDND
Rank (before): 584

constructSequence: WFMMTFRTVLHHVHDV
Rank (before): 1374

constructSequence: WFMMKFRTVLYHVNYV
Rank (before): 1377

###

- targetUnderTest: MAL^TIR (Homo sapiens)
- Construct: MAL (residues 79–221); 6xHis; made in house; host or cells: E. coli BL21 (DE3)
- measurementDescription: T‐Surf phage library (P8 and P3) selection against MAL^TIR, four rounds, NGS read counts
- Format: binding
- protocolConditions: P8_MAL: rank by count after grouping
Items are presented alongside their recorded Rank (after).

constructSequence: LFFWEILKQLLRSAGR
Rank (after): 454
--
constructSequence: SEFIQKISLWMNAKIV
Rank (after): 171
--
constructSequence: YFLHFLLFSRLDTVYI
Rank (after): 464
--
constructSequence: KLFWAICIMRWCRRAF
Rank (after): 175
--
constructSequence: AFLYTFLINLTRQTNF
Rank (after): 147
--
constructSequence: LFCWESLKQLLRSDCR
Rank (after): 169
--
constructSequence: AFLYTFLKNLMRKPTF
Rank (after): 422
--
constructSequence: YLKWGYPWFWIVCVL
Rank (after): 143
--
constructSequence: LFFWESLKQLLRAMA
Rank (after): 473
--
constructSequence: AFLYTFLINLTHPTIH
Rank (after): 161
--
constructSequence: RNFVAYLLQALAHKCI
Rank (after): 420
--
constructSequence: NLLYDLLRWLGIRAFL
Rank (after): 403
--
constructSequence: WFYERLLNLILRDTKV
Rank (after): 96
--
constructSequence: TFLGPLYNALVQAGIP
Rank (after): 120
--
constructSequence: LVAHEISKKMKIFATI
Rank (after): 182
--
constructSequence: AFFWAQLKSVLGNLTK
Rank (after): 399
--
constructSequence: TFLGHLYNALLQPGIH
Rank (after): 181
--
constructSequence: DPQDLQWFYERLVSLI
Rank (after): 447
--
constructSequence: AFLWTQLKNVLGNPTF
Rank (after): 408
--
constructSequence: AFLCAHLKSVLGNPTI
Rank (after): 461
--
constructSequence: AFFWAQLKSGLGNPTK
Rank (after): 186
--
constructSequence: TFLATLYNALAQAGIH
Rank (after): 449
--
constructSequence: KLIQGGCLYRLLKIEQ
Rank (after): 421
--
constructSequence: WFYERQVSLILRDTNV
Rank (after): 98
--
constructSequence: WFYERLVCLLLRDSKV
Rank (after): 458
--
constructSequence: TFPGHLYNALVQAGIL
Rank (after): 180
--
constructSequence: WFYERLLSLVLRDTKV
Rank (after): 176
--
constructSequence: WFYERLVSLILRHTKL
Rank (after): 187
--
constructSequence: AFLWAQLNSVLGNPTM
Rank (after): 156
--
constructSequence: RNYVAYLFQALASKGI
Rank (after): 407
--
constructSequence: WFYERLVSLIMRATKV
Rank (after): 117
--
constructSequence: DSLFWDRLLYSLHVTE
Rank (after): 157
--
constructSequence: WFYERLFSLILRATKV
Rank (after): 148
--
constructSequence: LLFWGSLKQLLRSDGR
Rank (after): 111
--
constructSequence: AFLCPQLKSVLGNPTI
Rank (after): 133
--
constructSequence: EYRNESKFIWDIINAI
Rank (after): 386
--
constructSequence: WFYERMVSLILRDTKL
Rank (after): 136

The reported numbers originate from paper PMC11714206.
